biological target: PDGF AB (Homo sapiens, UniProt P04085;P01127 P04085:87-211,P01127:82-190); assay: filter; among seven highest affinity ligands; data not shown; conditions: tags: R&D Systems 222-AB; chain copies: A/B chain heterodimer (inferred)
Sequence (P01127 82-190, chain 2 of 2, other chains not shown): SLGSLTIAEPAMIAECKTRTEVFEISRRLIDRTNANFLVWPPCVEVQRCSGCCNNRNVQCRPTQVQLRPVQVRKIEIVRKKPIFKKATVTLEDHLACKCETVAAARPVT
quantity-kind: binding result

{"binder": "ssDNA ligand 40 (ssDNA) DNA: ATCCGCCTGATTAGCGATACTAGTGGAACAGGGCACGGAGAGTCAAACTTTGGTTTCCCCCACTTGAGCAAAATCACCTGCAGGGG", "binding result": "binds"}
{"binder": "ssDNA ligand 38 (ssDNA) DNA: ATCCGCCTGATTAGCGATACTAAAGTCGTGCAGGGTCCCCTGGAAGCATCTCCGATCCCAGACTTGAGCAAAATCACCTGCAGGGG", "binding result": "binds"}
{"binder": "ssDNA ligand 14 (ssDNA) DNA: ATCCGCCTGATTAGCGATACTAGGCTTGACAAAGGGCACCATGGCTTAGTGGTCCTAGTACTTGAGCAAAATCACCTGCAGGGG", "binding result": "binds"}
{"binder": "ssDNA ligand 26 (ssDNA) DNA: ATCCGCCTGATTAGCGATACTAGAGGGGAAGTAGGCTGCCTGACTCGAGAGAGTCCTCCCGACTTGAGCAAAATCACCTGCAGGGG", "binding result": "binds"}

Now for the binder whose binding result we want.
Which value of binding result has been reported for ssDNA ligand 36 (ssDNA) DNA: ATCCGCCTGATTAGCGATACTCCACAGGCTACGGCACGTAGAGCATCACCATGATCCTGTGACTTGAGCAAAATCACCTGCAGGGG in the records?
binds
